Listed molecules paired with reported melting point

Reference set (3 entries):
- COc1ccc2[nH]c(C(N)=O)c(OC(C)C)c2c1: 138 to 140 °C
- COc1ccc(-c2cc(OC3SCC(O)C(O)C3O)ccn2)cc1 (centres undefined): 150 to 154 °C
- COCCc1sc(C(O)(c2nc(C)c(CCOC)s2)C(F)(F)F)nc1C: 68 to 69 °C

Pending molecule:
Can you share its melting point? I mean this molecule: O=Cc1cccc(OCCc2coc(-c3ccccc3)n2)c1 51 to 53 °C

---

Listed compounds paired with reported melting point

Reference set (4 entries):
- COc1cc(C(=O)N[C@@H]2CCN(C)C2)ccc1Nc1ncc2c(n1)N(C1CCCCC1)CC(F)(F)C(=O)N2C: 98 to 99 °C
- Cc1nc2cccc(C(F)(F)F)c2c(=O)n1C1CCC(=O)NC1=O (centres undefined): 268 to 270 °C
- CC1=C(C(=O)c2ccc3c(c2)CCN(C(N)=O)C3)C(C)(C)CC1: 40.1 to 41.4 °C
- CC(=O)OC1CSC(Oc2ccc3oc(C)nc3c2)C(OC(C)=O)C1OC(C)=O (centres undefined): 168 °C

Can you share its melting point? I mean this compound: CCOC(=O)N[C@@H]1c2cc(C#N)ccc2OC(C)(C)[C@H]1O (relative stereo) 147 to 148 °C

Can you share its melting point? I mean this compound: O=C(Cc1ccc(F)cc1)Nc1ccc(-n2nc(C(F)(F)F)cc2C2CC2)cc1 135 to 140 °C

Can you share its melting point? I mean this compound: O=C(O)c1cn(CCc2cccc(C(F)(F)F)c2)c2cc(C3CC3)nn2c1=O 200 to 205 °C

Can you share its melting point? I mean this compound: O=c1[nH]c2cc([N+](=O)[O-])c3c(c2[nH]c1=O)CN(S(=O)(=O)c1cccs1)CC3 > 300 °C

Can you share its melting point? I mean this compound: CC(C(=O)O)c1ccc2cc(OCc3csc(-c4ccccc4)n3)ccc2c1 (centres undefined) 163 to 164 °C

Can you share its melting point? I mean this compound: CC(=O)SCC(Cc1ccccc1)C(=O)Nc1cc(Cl)ccc1C(=O)O (centres undefined) 143 to 144 °C

Can you share its melting point? I mean this compound: CC1(C)OC(=O)Nc2ccc(-c3cccc(Cl)c3)cc21 158 to 159 °C

Can you share its melting point? I mean this compound: CCN(CC)c1ccc(-c2cc(-c3ccc(C(=O)O)cc3)ccc2OCCCO)cc1C 208 °C

Can you share its melting point? I mean this compound: CCNCC1CN(c2c(F)cc3c(=O)c(C(=O)O)cn(-c4ccc(F)cc4F)c3c2F)CCO1 (centres undefined) 226 to 229 °C

Can you share its melting point? I mean this compound: CN=C1c2ccccc2CCc2ccccc21 89 to 90 °C
